target: huCTLA4 (Homo sapiens, UniProt P16410); experiment: Flow binding to CHO cells stably expressing CTLA4; parameters: huCTLA4 and huPD-L1, full-length mammalian surface expression constructs were generated; expressed in transfected cells; host or cells: CHO cells, lentiviral transduction, sorted to >98% purity; details: Table E23; CD80 IgV-Fc (inert) at 33.3 nM; CHO cells stably expressing CTLA4
Sequence (P16410 36-223): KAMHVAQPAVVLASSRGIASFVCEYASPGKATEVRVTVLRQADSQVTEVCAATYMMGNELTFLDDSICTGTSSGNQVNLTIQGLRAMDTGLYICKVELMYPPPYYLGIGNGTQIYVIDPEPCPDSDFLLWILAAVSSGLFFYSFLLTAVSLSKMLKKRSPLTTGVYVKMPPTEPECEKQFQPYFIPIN
value kind: CTLA4 MFI at 33.3 nM

Asked: Endpoint output: CTLA4 MFI at 33.3 nM of H18F/A26P/E35D/M47I/V68M/A71G/D90G (protein, UniProt P33681 35-288, looked up, variant H18F A26P E35D M47I V68M A71G D90G) T-lymphocyte activation …: VIHVTKEVKEVATLSCGFNVSVEELPQTRIYWQKDKKMVLTMMSGDINIWPEYKNRTIFDITNNLSIMILGLRPSDEGTYECVVLKYEKGAFKREHLAEVTLSVKADFPTPSISDFEIPTSNIRRIICSTSGGFPEPHLSWLENGEELNAINTTVSQDPETELYAVSSKLDFNMTTNHSFMCLIKYGHLRVNQTFNWNTTKQEHFPDNLLPSWAITLISVNGIFVICCLTYCFAPRCRERRRNERLRRESVRPV . Value?
Given back: 23932

Asked: Endpoint output: CTLA4 MFI at 33.3 nM of H18L/E35D/M47V/V68M/A71G/D90G (protein, UniProt P33681 35-288, looked up, variant H18L E35D M47V V68M A71G D90G) T-lymphocyte activation …: VIHVTKEVKEVATLSCGLNVSVEELAQTRIYWQKDKKMVLTMMSGDVNIWPEYKNRTIFDITNNLSIMILGLRPSDEGTYECVVLKYEKGAFKREHLAEVTLSVKADFPTPSISDFEIPTSNIRRIICSTSGGFPEPHLSWLENGEELNAINTTVSQDPETELYAVSSKLDFNMTTNHSFMCLIKYGHLRVNQTFNWNTTKQEHFPDNLLPSWAITLISVNGIFVICCLTYCFAPRCRERRRNERLRRESVRPV . Value?
Given back: 20280
